Target: PRMT1 C109 (Q99873) (Homo sapiens, UniProt Q99873)
Sequence (Q99873 whole entry, the tested form may be a part): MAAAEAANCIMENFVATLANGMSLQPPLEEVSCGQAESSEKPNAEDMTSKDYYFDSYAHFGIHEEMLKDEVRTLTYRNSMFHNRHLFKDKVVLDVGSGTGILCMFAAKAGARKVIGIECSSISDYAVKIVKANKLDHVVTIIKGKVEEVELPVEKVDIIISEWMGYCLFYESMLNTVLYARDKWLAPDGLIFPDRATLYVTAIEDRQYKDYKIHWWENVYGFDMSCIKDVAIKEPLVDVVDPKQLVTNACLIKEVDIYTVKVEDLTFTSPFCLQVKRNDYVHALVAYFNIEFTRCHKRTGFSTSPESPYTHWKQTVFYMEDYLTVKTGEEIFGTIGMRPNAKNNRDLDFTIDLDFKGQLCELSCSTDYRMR
Experiment: Competitive isoTOP-ABPP, cell lysates;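 also: Heavy/light ratio DMSO over fragment-treated so higher means more cysteine engagement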
Type: binding
Conditions: 500 μm, in-vitro_ramos
Experimental: TEV digests were pressure loaded onto a 250 μm (inner diameter) fused silica capillary column packed with C18 resin (Aqua 5 μm, Phenomenex). The samples were analyzed by multidimensional liquid chromatography tandem mass spectrometry (MudPIT), using an LTQ-Velos Orbitrap mass spectrometer (Thermo Scientific) coupled to an Agilent 1200-series quaternary pump. […]
value kind: isoTOP-ABPP reactivity profile ratio, Q99873_C109

>>> df
                                   compound                               test_system  result
0     O=C(CCl)Nc1cccc2ncccc12 [compound 51]  PRMT1 C109 (Q99873) (Homo sapiens, UniProt Q99873)     9.5
1  O=C(CCl)Nc1ccc(-c2ccccc2)cc1 [compound 52]  PRMT1 C109 (Q99873) (Homo sapiens, UniProt Q99873)     1.3
2  N#CC(=Cc1ccc(-c2ccccc2Cl)o1)C(N)=O [compound 42]  PRMT1 C109 (Q99873) (Homo sapiens, UniProt Q99873)     0.9
3  C=CC(=O)N1CCC(Cc2ccccc2)CC1 [compound 53]  PRMT1 C109 (Q99873) (Homo sapiens, UniProt Q99873)     1.1
4   COc1cc(NC(=O)CCl)cc(OC)c1 [compound 43]  PRMT1 C109 (Q99873) (Homo sapiens, UniProt Q99873)     1.2

Each recorded value in this set is attributed to patent US10670605B2.
